Values were extracted from patent US12344610B2.

Tested on: Trypanosoma brucei Lister 427 VSG221 with APOL1 G1 recombinant protein
Experimental Details: APOL1 G1 trypanosome cell rescue assay (Example B5)
Type: cell-based
Assay Conditions: Trypanosoma brucei, 20 h, read-out: APOL1 G1 Trypanosome Rescue EC50, Trypanosoma brucei Lister 427 VSG221 with APOL1 G1 recombinant protein, 20 hours, CellTiter-Glo; geometric mean of at least 2 assay runs; † = single assay run
Readout Type: EC50 (µM)
Kindly answer with a numeric value in µM, unit omitted.

Here's what some known entries look like.
# Molecule, Endpoint Result
records = [
    ("O=C1Nc2ccc(Cl)cc2C12CCN(CCOc1ccc3c(cnn3[C@H]3C[C@H](O)C3)c1)CC2", 0.137),
    ("CNC(=O)N1CCCc2cc(OCCN3CCC4(CC3)C(=O)Nc3ccc(Cl)cc34)ccc21", 0.228),
    ("C[C@]1(O)C[C@@H](n2nnc3cc(OCCN4CCC5(CC4)C(=O)Nc4ccc(Cl)cc45)cnc32)C1", 0.205),
]

*Q* Write down the reported EC50 (system: Trypanosoma brucei Lister 427 VSG221 with APOL1 G1 recombinant protein) of CS(=O)(=O)N1CC2(CN(C(=O)c3ccc(OCCN4CCC5(CC4)C(=O)Nc4ccc(Cl)cc45)cc3F)C2)C1
*A* 0.0716

*Q* Recall the reported EC50 of CC(O)c1ncc(OCCN2CCC3(CC2)C(=O)Nc2ccc(C(F)F)cc23)cc1C(F)(F)F (single isomer, unassigned) on Trypanosoma brucei Lister 427 VSG221 with APOL1 G1 recombinant protein and write it down.
*A* 0.05

====

Measured pEC50 of individual entries
Tested on: Trypanosoma brucei Lister 427 VSG221 with APOL1 G1 recombinant protein
Experimental Details: APOL1 G1 trypanosome cell rescue assay (Example B5)
Type: cell-based
Assay Conditions: Trypanosoma brucei, 20 h, read-out: APOL1 G1 Trypanosome Rescue EC50, Trypanosoma brucei Lister 427 VSG221 with APOL1 G1 recombinant protein, 20 hours, CellTiter-Glo; geometric mean of at least 2 assay runs; † = single assay run
From the text: APOL1 G0/G1/G2 viability assay for measurement of cytotoxicity reversal by compound in trypanosomes (APOL1 G0/G1/G2 trypanosome cell rescue assay). APOL1 protein expression and purification. […] Assay Setup. […] Assay ready plates were generated with duplicate 11-point compound dilution series that consisted of 2-fold stepwise dilutions (0.4% DMSO final). […] Trypanosomes were counted using a hemacytometer and diluted in modified HMI-9 media to a concentration of 1.25×10^4 cell/mL. […]
Quick note: pEC50 values are minus log10 of concentrations in mol/L.

Example results:
# Molecule, Endpoint Result
records = [
    ("CNC(=O)C1(c2ccc(OCCN3CCC4(CC3)C(=O)Nc3ccc(C#N)cc34)cc2)COC1", 5.53),
    ("C[C@]1(O)C[C@@H](n2ccc3cc(OCCN4CCC5(CC4)C(=O)Nc4ccc(C#N)cc45)cnc32)C1", 6.57),
    ("C[C@]1(O)C[C@H](n2ncc3cc(OCCN4CCC5(CC4)C(=O)Nc4ccc(Cl)cc45)cnc32)C1 (single isomer, unassigned)", 6.92),
]

Next up:
*Q* Note down pEC50 recorded for CN=S(C)(=O)c1ccc(OCCN2CCC3(CC2)C(=O)Nc2ccc(Cl)cc23)cc1 (stereo not shown) [Compound 147]
*A* 6.64

====

Test system: HEK293 cells overexpressing APOL1 G2
Experimental Details: APOL1 G2 HEK293 cell rescue assay (reversal of cell death caused by overexpression of APOL1)
Assay type: cell-based
Assay Conditions: Homo sapiens, HEK293, HEK293 overexpressing APOL1 G2; geometric mean of at least 2 assay runs; † = single assay run
Readout Type: EC50 (nM)
Answer with a number only, understood to be in nM.

# Compound, Readout Type, Result Units, Endpoint Result
measured = [
    ("CS(=O)(=O)c1ccc(OCCN2CCC3(CC2)C(=O)Nc2ccc(Cl)cc23)cc1C(O)CO (stereo not shown) [Compound 216]", "EC50", "nM", 281),
    ("O=C(c1ccc(OCCN2CCC3(CC2)C(=O)Nc2ccc(Cl)cc23)cc1F)N1CCOCC1 [Compound 231]", "EC50", "nM", 42),
    ("CCS(=O)(=O)C1(c2ccc(OCCN3CCC4(CC3)C(=O)Nc3ccc(C#N)cc34)cc2)COC1 [Compound 174]", "EC50", "nM", 104),
    ("CC(O)c1ncc(OCCN2CCC3(CC2)C(=O)Nc2ccc(Cl)cc23)cc1C(F)(F)F (stereo not shown) [Compound 399]", "EC50", "nM", 49.8),
    ("CS(=O)(=O)N1CCCc2cc(OCCN3CCC4(CC3)C(=O)Nc3ccc(Cl)cc34)ccc21 [Compound 53]", "EC50", "nM", 52.9),
    ("CN=S(C)(=O)c1ccc(OCCN2CCC3(CC2)C(=O)Nc2ccc(C#N)cc23)cc1 (single isomer, unassigned) [Compound 151]", "EC50", "nM", 397),
]

// switching to the query compound
*Q* Specify reported EC50 for the compound shown: C[C@]1(O)C[C@@H](n2c(=O)n(CO)c3cc(OCCN4CCC5(CC4)C(=O)Nc4ccc(Cl)cc45)cc(C(F)(F)F)c32)C1 [Compound 467]
*A* 4.74
